- ASSAY_CONDITIONS: mouse, in vivo, sc, 40 mg/kg
Residues, ends and D or L forms follow the SMILES beside them.
READOUT_NAME: AUC(0-inf)

MOLECULE	READOUT_NAME	RESULT
CC[C@@H]1NC(=O)[C@@H](CC(C)C)NC(=O)[C@H](CCN)NC(=O)[C@@H](NC(=O)[C@H](CN)NC(=O)[C@@H](NC(=O)[C@H](CCN)NC(=O)c2ccc(Cl)cc2Cl)[C@@H](C)O)CCNC(=O)[C@H]([C@@H](C)O)NC(=O)[C@H](CCN)NC(=O)[C@H](CCN)NC1=O [Lipopeptide F365] (HELM PEPTIDE1{[O=C(c1ccc(Cl)cc1Cl)[*:2]].[Dab].T.[NC[C@H](N[*:1])C(=O)[*:2]].[Dab].[Dab].[dL].[Abu].[Dab].[Dab].T}$PEPTIDE1,PEPTIDE1,5:R3-11:R2$$$V2.0)	AUC(0-inf)	86200 ng·h/mL

----------
- Test system: K. pneumoniae FADDI-KP032
- Format: cell-based, Klebsiella pneumoniae
- ASSAY_CONDITIONS: FADDI-KP032
Residues, ends and D or L forms follow the SMILES beside them.

COMPOUND	MIC K. pneumoniae FADDI-KP032 / mg/L
CCCCCCCC(=O)N[C@@H](CCN)C(=O)N[C@H](C(=O)N[C@@H](CCN)C(=O)N[C@H]1CCNC(=O)[C@H]([C@@H](C)O)NC(=O)[C@H](CCN)NC(=O)[C@H](CCN)NC(=O)[C@H](C)NC(=O)[C@@H](CC(C)C)NC(=O)[C@H](CCN)NC1=O)[C@@H](C)O [Lipopeptide F124] (HELM PEPTIDE1{[CCCCCCCC(=O)[*:2]].[Dab].T.[Dab].[Dab].[Dab].[dL].A.[Dab].[Dab].T}$PEPTIDE1,PEPTIDE1,5:R3-11:R2$$$V2.0)	0.25

----------
- EXPERIMENT: Cell viability after 24 h treatment
- Type: cell-based, human
- ASSAY_CONDITIONS: human, KCNJ16 knockout HK-2 cells (kidney proximal tubular), Cell viability, KCNJ16 KO, Rep4; KCNJ16 knockout HK-2 cells, 24 h; replicate 4; Fig. 6b; read-out: Cell viability, KCNJ16 KO, Rep4
- Excerpt: Fig. 6 Transcriptomic changes in human kidney proximal tubular HK-2 cells following treatments with polymyxin B (PMB), colistin (COL), F287, F319, and F365. a Numbers of differentially expressed genes. […]
Residues, ends and D or L forms follow the SMILES beside them.

MOLECULE	RESULT_UNIT	viability at 24 h
CCCCCCCC(=O)N[C@@H](CCN)C(=O)N[C@H](C(=O)N[C@@H](CN)C(=O)N[C@H]1CCNC(=O)[C@H]([C@@H](C)O)NC(=O)[C@H](CCN)NC(=O)[C@H](CCN)NC(=O)[C@H](CC)NC(=O)[C@@H](CC(C)C)NC(=O)[C@H](CCN)NC1=O)[C@@H](C)O [Lipopeptide F287] (HELM PEPTIDE1{[CCCCCCCC(=O)[*:2]].[Dab].T.[NC[C@H](N[*:1])C(=O)[*:2]].[Dab].[Dab].[dL].[Abu].[Dab].[Dab].T}$PEPTIDE1,PEPTIDE1,5:R3-11:R2$$$V2.0)	%	69.6
